# EXPERIMENTAL SYSTEM: Aminopeptidase N (Plasmodium falciparum (isolate 3D7)) (UniProt O96935)
# Sequence (O96935 whole entry, looked up): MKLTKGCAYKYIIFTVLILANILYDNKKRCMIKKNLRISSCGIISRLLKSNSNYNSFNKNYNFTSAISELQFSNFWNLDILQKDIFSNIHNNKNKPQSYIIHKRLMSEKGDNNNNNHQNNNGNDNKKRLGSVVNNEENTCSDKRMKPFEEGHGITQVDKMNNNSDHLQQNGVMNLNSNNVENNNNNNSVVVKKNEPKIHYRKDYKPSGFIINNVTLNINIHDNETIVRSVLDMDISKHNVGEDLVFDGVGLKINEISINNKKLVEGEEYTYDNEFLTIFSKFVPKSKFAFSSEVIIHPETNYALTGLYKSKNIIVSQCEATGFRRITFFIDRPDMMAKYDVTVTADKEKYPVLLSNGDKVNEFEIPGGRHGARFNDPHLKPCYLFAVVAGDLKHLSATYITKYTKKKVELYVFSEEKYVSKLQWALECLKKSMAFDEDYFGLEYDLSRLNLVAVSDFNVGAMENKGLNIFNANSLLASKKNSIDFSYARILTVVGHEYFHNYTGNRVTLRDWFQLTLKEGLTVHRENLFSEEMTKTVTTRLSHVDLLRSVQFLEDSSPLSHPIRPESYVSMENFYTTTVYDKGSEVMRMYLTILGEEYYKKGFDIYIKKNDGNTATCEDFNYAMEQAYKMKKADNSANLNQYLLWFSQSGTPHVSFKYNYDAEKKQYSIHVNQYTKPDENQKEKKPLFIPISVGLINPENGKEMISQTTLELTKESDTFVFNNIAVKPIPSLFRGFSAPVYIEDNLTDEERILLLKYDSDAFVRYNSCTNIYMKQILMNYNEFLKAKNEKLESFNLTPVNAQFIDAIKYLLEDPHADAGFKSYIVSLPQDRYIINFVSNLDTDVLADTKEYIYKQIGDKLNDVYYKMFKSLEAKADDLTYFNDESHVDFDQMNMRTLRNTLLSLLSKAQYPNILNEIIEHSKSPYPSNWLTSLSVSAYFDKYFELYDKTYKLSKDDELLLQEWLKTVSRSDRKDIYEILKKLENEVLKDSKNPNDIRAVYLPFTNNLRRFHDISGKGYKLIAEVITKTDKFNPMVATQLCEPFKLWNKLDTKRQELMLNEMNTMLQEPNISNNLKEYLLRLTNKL
# TEST NAME: malaria alanyl aminopeptidase activity blockers – biochemical, fluorogenic H-Leu-NHMec substrate, 1536-well (AID 1445);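 further: plate controls were DMSO full reaction for no effect and no enzyme background for full effect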
# ASSAY CONDITIONS: recombinant M1AAP, H-Leu-NHMec fluorogenic kinetic assay; at 30 µM, stronger effect = higher value unless noted
The whole screen tested about 220,000 compounds, of which about 910 (0.41%) were called active. The sample holds actives, similar compounds and a random draw of the others, so the mix is not that of the screen. Results with a measured potency or affinity are listed apart.
VALUE TYPE: inhibition (%)
One number for each entry, in %.

Study these solved cases before continuing.
CCCCCCOc1ccc(C(CC(=O)O)C(N)=O)cc1 (stereo unspecified)    -7.78
Cc1cnc(C)c(N2CCC(C(=O)NCc3cccs3)CC2)n1    3.94
CCc1nnc(NC(=O)c2ccc3ccccc3n2)s1    18.2

Provide each entry's inhibition from the list below.
1. CN(C(=O)c1c[nH]c(=O)cc1C(F)(F)F)c1ccc(Cl)c(Cl)c1
2. CCC(CC)c1nnc(NC(=O)c2ccc3ccccc3n2)s1

1. -1.25
2. 44

Would you mind giving inhibition for every compound in the list below?
1. COc1ccc(C(=O)O/N=C(\N)Cc2ccc([N+](=O)[O-])cc2)c(OC)c1
2. CSc1nc(N(CCO)CCO)c2sc3nc(-c4ccco4)c4c(c3c2n1)CCC4
3. O=Cc1ccc2cccnc2n1
4. Cc1cccc(S(=O)(=O)Nc2nc3ccccc3nc2NCc2ccco2)c1

1: 5.06; 2: 27.5; 3: 3.17; 4: 14.8

Record inhibition per entry; entries follow.
1. COCc1nnc(NC(=O)c2sc3ccccc3c2Cl)s1
2. Cc1cnc(NC(=O)c2sc3ccccc3c2Cl)s1
3. Cc1nnc(NC(=O)c2sc3ccccc3c2Cl)s1
4. O=C(NCc1cccs1)c1nn2cccnc2c1Cl
5. Cc1ccc(S(=O)(=O)Nc2nc3ccccc3nc2NCc2ccco2)cc1C
6. Cc1ccnc(NS(=O)(=O)c2cnc(Cl)c(Br)c2)c1

1. 17.9
2. 5.85
3. 27.1
4. 12.7
5. 25.4
6. 4.88

Fill blank: measured inhibition of the compound `COC(=O)Nc1ccc(=O)n(Cc2c(Cl)cccc2Cl)c1` is ____. 4.71

###

# EXPERIMENTAL SYSTEM: Aminopeptidase N (Plasmodium falciparum (isolate 3D7)) (UniProt O96935)
# TEST NAME: malaria alanyl aminopeptidase activity blockers – biochemical, fluorogenic H-Leu-NHMec substrate, 1536-well (AID 1445)
# ASSAY CONDITIONS: recombinant M1AAP, H-Leu-NHMec fluorogenic kinetic assay; at 30 µM, stronger effect = higher value unless noted
In all, about 220,000 compounds went through this assay and about 910 (0.41%) were called active. Only a selection was taken, and actives are over-represented in it overall. Results with a measured potency or affinity are listed apart.
VALUE TYPE: inhibition (%)
One number for each entry, in %.

COc1ccc(CC(=O)N/N=C/c2ccc(-c3ccc(F)cc3)o2)cc1OC    6.71
NS(=O)(=O)c1cccc(NC(=O)CCSc2ccc(Cl)cc2)c1    6.9

Now examine the next entry.
Reported inhibition for Cc1ccc(C(=O)CC2(O)C(=O)Nc3ccccc32)s1 (stereo not drawn) : what is it? -3.92

###

# EXPERIMENTAL SYSTEM: Aminopeptidase N (Plasmodium falciparum (isolate 3D7)) (UniProt O96935)
# TEST NAME: malaria alanyl aminopeptidase activity blockers – biochemical, fluorogenic H-Leu-NHMec substrate, 1536-well (AID 1445);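 further: plate controls were DMSO full reaction for no effect and no enzyme background for full effect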
# ASSAY CONDITIONS: recombinant M1AAP, H-Leu-NHMec fluorogenic kinetic assay; at 30 µM, stronger effect = higher value unless noted
The campaign covered roughly 220,000 compounds. About 910 (0.41%) were called active. The list comes from a sample in which actives are over-represented; it also holds close analogues and randomly drawn compounds. Entries with a potency or affinity are not part of this list.
VALUE TYPE: inhibition (%)
Answers are plain numbers, in %.

Example entries and their recorded answers appear below.
O=C1CCCc2c1nc(-c1ccc(F)cc1)n2O    0.92
Clc1ccc(N2N=C(c3cccs3)CC2c2ccco2)cc1 (stereo not given)    4.39
C=CCc1c(C)nc2c(C)cccc2c1SC(=N)N    1.57
CC(=O)Nc1sc(C)c(C)c1C(=O)Nc1ccc(C)cc1    10.1

Fill blank: measured inhibition of the molecule c1ccc(N2N=C(c3cccs3)CC2c2ccco2)cc1 (stereo not given) is ____. 18.2

###

# EXPERIMENTAL SYSTEM: Aminopeptidase N (Plasmodium falciparum (isolate 3D7)) (UniProt O96935)
# TEST NAME: malaria alanyl aminopeptidase activity blockers – biochemical, fluorogenic H-Leu-NHMec substrate, 1536-well (AID 1445);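 further: plate controls were DMSO full reaction for no effect and no enzyme background for full effect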
# ASSAY CONDITIONS: recombinant M1AAP, H-Leu-NHMec fluorogenic kinetic assay; at 30 µM, stronger effect = higher value unless noted
In all, about 220,000 compounds went through this assay and about 910 (0.41%) were called active. For the sample, actives were picked, then their nearest neighbours and some compounds at random. Entries with a potency or affinity are not part of this list.
VALUE TYPE: inhibition (%)
Numbers only, in %.

Use these answered entries as a reference point.
COc1cccc(OC)c1NC(=O)CN1CCC(NC(=O)c2cccc(F)c2)CC1    20.7
O=C1CCC(C(=O)OCc2ccccc2)N1 (configuration not stated)    2.24
CC(C)CN(C(=O)CSc1nnc2ccccn12)c1c(N)n(CC(C)C)c(=O)[nH]c1=O    6.58
CCC(=O)c1cc2c(C)cc(=O)oc2c(C)c1O    4.77
CCOC(=O)C1=C(O)/C(=C/c2ccccn2)SC1=Nc1ccc(Cl)cc1    -2.13

Please report inhibition for every entry that follows.
1. Cc1cc(NC(=O)c2ccccc2)ncc1NC(=O)c1ccco1
2. CCOc1[nH]n(-c2ccccc2)c(=O)c1C=Nc1ccccc1
3. O=C(Oc1ccc(OC(=O)c2ccco2)c(S(=O)(=O)c2ccc(Cl)cc2)c1)c1ccco1
4. O=C(CN1CCC(C(=O)c2cccc(F)c2)CC1)NCc1cccs1
5. O=c1ccc2ccc(Oc3ccc([N+](=O)[O-])cc3[N+](=O)[O-])cc2o1
6. CC(C)CCOCC(=O)Oc1ccccc1C(=O)O
7. Cc1ccc(S(=O)(=O)Nc2ccc(Cl)cc2C(=O)c2ccccc2)cc1

1: 5.34; 2: 7.67; 3: 4.36; 4: 11.7; 5: 11.5; 6: -2.22; 7: 3.73

# map each molecule to its inhibition
1. COc1ccc(C(=O)N2CCCC(CCC(=O)NCc3ccc(F)c(F)c3)C2)cc1F (configuration not stated)
2. CCCCc1cc(=O)oc2cc(OCC(=O)N(CC)CC)c(Cl)cc12
3. CCOC(=O)C1=C(O)/C(=C/c2cc(OC)c(OC)c(OC)c2)SC1=Nc1ccc(OC)cc1
4. CCN(CC)Cc1c(O)ccc2c(-c3ccccc3)cc(=O)oc12
5. CCOc1ccccc1N(CC(=O)Nc1ccccc1C(=O)NCc1ccco1)S(C)(=O)=O
6. NC(=O)c1ccc(-n2nnnc2SCC(=O)Nc2ccc(N3CCOCC3)c(Cl)c2)cc1

3.11
6.8
0.13
8.74
21
-2.55

Could I get inhibition for every one of these entries?
1. CCc1ccc2nc(N3C(=O)C(O)=C(C(=O)c4ccco4)C3c3cccs3)sc2c1 (configuration not stated)
2. Cc1cc(NC(=O)c2ccco2)ncc1NC(=O)CCc1ccccc1
3. CCOC(=O)c1cnc2c(-c3ccc(Cl)cc3)cnn2c1C
4. COc1ccc(S(=O)(=O)n2nc(OC(=O)c3cccs3)cc2NC(=O)c2cccs2)cc1
5. COc1cc(NC(=O)CSc2nnnn2Cc2ccccc2)cc(OC)c1
6. CCOc1ccc(N(CC(=O)Nc2ccccc2C(=O)NCc2ccco2)S(C)(=O)=O)cc1

[14.9, 29.7, -12.2, 3.59, -0.13, 23.4]

Kindly give each listed record's inhibition.
1. Cc1cccc(C(=O)Oc2ccc(/C=N/NC(=O)c3ccccc3O)cc2)c1
2. Fc1ccc(-c2nc3c(Cl)cc(C(F)(F)F)cn3c2Cl)cc1

1. 3.44
2. -1.92

If you can, please state the reported inhibition value of `CCCCc1cc(=O)oc2cc(OCc3nn[nH]n3)c(Cl)cc12` . 6.21

###

# EXPERIMENTAL SYSTEM: Aminopeptidase N (Plasmodium falciparum (isolate 3D7))
# TEST NAME: malaria alanyl aminopeptidase activity blockers – biochemical, fluorogenic H-Leu-NHMec substrate, 1536-well (AID 1445);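 further: plate controls were DMSO full reaction for no effect and no enzyme background for full effect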
# ASSAY CONDITIONS: recombinant M1AAP, H-Leu-NHMec fluorogenic kinetic assay; at 30 µM
Hit rate of the full screen: of about 220,000 compounds, about 910 (0.41%) were called active.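 How the source made its calls: active means primary inhibition above the hit cutoff, then over 50% inhibition at one or more dose response concentrations (cut at about 23% in these data, passing the limit was not always enough); inconclusive means conflicting primary data, or primary hits not chosen for dose response; inactive means low primary inhibition, or under 50% at every dose.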 Shown is part of a subset that was picked to be rich in actives. Entries with a potency or affinity are not part of this list.
Give your call using only these classes: active, inactive

CCn1c(NC(=O)c2cccs2)c(-c2cccs2)c(=O)c2ccccc21    active

Each molecule tested received a call. Report the one for `CCCC(=O)Nc1c(-c2cccs2)c(=O)c2ccccc2n1CC` . inactive

Recorded test outcome, item `Cc1nn(-c2ccccc2)c(Cl)c1/C=C1\C(=O)N(C)C(=S)N1C` inactive

Per the records of this test, what outcome belongs to `CCOC(=O)N=Nc1c(O)n(CC)c2ccccc12` ? inactive

Give the logged outcome of this assay for the following molecule: CN(C)CCCN1C(=O)c2oc3ccccc3c(=O)c2C1c1cccs1 (stereo unspecified) inactive

I would be grateful if you could indicate the recorded call for `CCCc1ccc(OCC(=O)NNC(=O)c2cccnc2)cc1` . inactive
